The reported numbers originate from PubChem BioAssay (NCI).

# assay name: NCI Yeast Anticancer Drug Screen. Data for the cln2 rad14 strain (AID 165);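 note: 0% = growth equal to vehicle treated cultures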
# details: S. cerevisiae cln2 rad14 strain, at 50.0 µM (retest, dose inferred, filed as 5.0)
The panel holds about 79,000 compounds, 15% with a hit somewhere; the sample as a whole holds those more often. Active and inactive are the calls of the source. Cut-off read from the data, not from the text of the source: active = growth inhibition above about 70%; inactive = the rest.
The categories you may choose from are true (1) (active), false (0) (inactive)

What call does the record list for "Cc1ccc(C)c(NC(=O)CCC(=O)CC(=O)c2ccncc2)c1" ?
false (0)

What call does the record list for "Cc1ccc(Nc2nc3c(s2)C(=O)c2ccccc2C3=O)cc1" ?
true (1)

What call does the record list for "Oc1ccc(Cl)cc1Cc1cc(Cl)cc(Cc2cc(Cl)ccc2O)c1O" ?
true (1)

What call does the record list for "COC(=O)c1c(C(N)=O)c(C)n(NC(=O)Nc2ccccc2)c1C" ?
true (1)

What call does the record list for CC1CCC(C(C)C)C(OC(=O)Nc2ccc(S(=O)(=O)N(C)C)cc2)C1 (stereo unspecified) ?
true (1)

What call does the record list for "Cc1cc(N=Nc2ccccc2C)c(N)cc1N" ?
false (0)

What call does the record list for "CC(=O)/C(=C\c1ccc(Cl)cc1Cl)C(=O)CCN(C)C" ?
true (1)

What call does the record list for "CC(C)C(=O)N1Cc2cc(Cl)cc(Cl)c2OC(=O)c2ccccc21" ?
false (0)

What call does the record list for "CCN(CC)CCNc1ccc(C)c2sc3cccc(O)c3c(=O)c12" ?
true (1)

What call does the record list for CC12C(=O)N(CC(=O)O)C(=O)C1(C)C1c3ccccc3C2c2ccc3ccccc3c21 (stereo unspecified) ?
true (1)

What call does the record list for "CC1=C(Br)S(=O)(=O)N(c2ccccc2)C(CBr)=C1Br" ?
true (1)
